# test.method.notes: chemical genetic growth profiling, strain panel (AID 1159580);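 also: tested at 20 µM; growth read once vehicle control cultures reached saturation at 30 °C; 1 = growth at the plate median or of vehicle wells; lower values mean less growth of the strain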
# condition.set: S. cerevisiae deletion strains, growth OD, locus YAL013W, strain DEP1, active compounds read low
Screen size: about 5,500 compounds; about 2,000 (36%) were called active. Not shown: some 18% with an inconclusive outcome. The list shows a part of the results.
The threshold is 1. Values of normalized growth beneath it are tagged Met; values meeting or exceeding it are tagged Not met.

>>> print(df.to_string())
                                   molecule  classification
0  NC(=O)N[C@@H]1O[C@H](CO)[C@@H](O)[C@H](O)[C@H]1O         Not met
1  CC(=O)C1CCC2C3CCC4C[C@H](O)CCC4(C)C3C[C@H](O)C12C (stereo partly specified)         Not met
2               COC(=O)c1cscc1Sc1ccc(Cl)cc1             Met

----------
# test.method.notes: chemical genetic growth profiling, strain panel (AID 1159580);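 also: tested at 20 µM; growth read once vehicle control cultures reached saturation at 30 °C; 1 = growth at the plate median or of vehicle wells; lower values mean less growth of the strain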
# condition.set: S. cerevisiae deletion strains, growth OD, locus YAL013W, strain DEP1, active compounds read low
About 2,000 (36%) of roughly 5,500 compounds were called active. About 18% were inconclusive and are not listed. Some of the results follow.
observed.property: normalized growth

molecule	value.observed
O=C(Oc1ccc(Cl)cc1Cl)c1c(Cl)cccc1Cl	0.946
NCC[C@@H](O)C(=O)N[C@@H]1C[C@H](N)[C@@H](O[C@H]2O[C@H](CN)[C@@H](O)[C@H](O)[C@H]2O)[C@H](O)[C@H]1O[C@H]1O[C@H](CO)[C@@H](O)[C@H](N)C1O (some centres not stated)	0.974
O=S(=O)(NCc1ccc(F)cc1F)c1cccc(C(F)(F)F)c1	0.969
CN(C)c1ccc(-c2n[nH]c(=O)c3ccccc23)cc1[N+](=O)[O-]	0.966
CCOC(=O)c1ccc(Oc2sccc2[N+](=O)[O-])cc1	0.796
O=C(O)COc1ccc(Cl)cc1Cl	1.01
NC1(C(=O)O)CC1	1
CC(C)(C)NC(=S)NC1CCN(Cc2ccccc2)CC1	1.06
Cc1c(C)c(C)c(CSc2nc3ccccc3[nH]2)c(C)c1C	1.01
COP(=S)(OC)Oc1ccc([N+](=O)[O-])cc1	1.03
CC1[C@H](C)OC(=O)CC(O)CC(O)CC(O)CCC(O)C(O)C[C@]2(O)CC(O)C(C(=O)O)C(CC(OC3O[C@H](C)[C@@H](O)[C@H](N)[C@@H]3O)/C=C/C=C/C=C/C=C/CC/C=C/C=C/[C@H](C)[C@H]1O)O2 (some centres not stated)	0.0554
CNc1ccc2oc(C[C@H]3O[C@@]4(CC[C@H]3C)O[C@H]([C@H](C)C(=O)c3ccc[nH]3)[C@H](C)C[C@H]4C)nc2c1C(=O)O	0.976
Clc1ccc(Oc2ccnc3cc(Cl)ccc23)cc1	0.909
CC[C@H](CO)Nc1nc(NCc2ccccc2)c2ncn(C(C)C)c2n1	1.01
FC(F)(F)Oc1ccccc1-c1nnc(-c2ccc(Cl)cc2)o1	0.946
O/N=C(/CNC(c1ccccc1)(c1ccccc1)c1ccccc1)c1ccccc1	0.969
O=S(=O)(c1ccc(Cl)cc1)c1cc(C(F)(F)F)cc(C(F)(F)F)c1	0.978
CNc1ccc(C(=O)CC(O)CCC(C)C2OC(=O)CC(O)CC(=O)CC(O)CC(O)CC(O)CC(O)CC3(O)CC(O)C(C(=O)OC)C(CC(OC4OC(C)C(O)C(N)C4O)/C=C/C=C/C=C/C=C/C=C/C=C/C=C/C2C)O3)cc1 (configuration not stated)	0.0566
NC1(C(=O)O)CCC1	0.911
N#Cc1cccc(CSC2=NCN(C3CC3)CN2)c1	1
CC(=O)O[C@H]1CC[C@@]2(C)C(C[C@@H](OC(C)=O)[C@]3(C)C2CC[C@@]2(C)[C@H](c4ccoc4)OC(=O)[C@H]4O[C@]423)C1(C)C (some centres not stated)	0.993
O=[N+]([O-])c1ccc(C(O)C(O)CO)cc1 (configuration not stated)	0.974

----------
# test.method.notes: chemical genetic growth profiling, strain panel (AID 1159580);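 also: tested at 20 µM; growth read once vehicle control cultures reached saturation at 30 °C; 1 = growth at the plate median or of vehicle wells; lower values mean less growth of the strain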
# condition.set: S. cerevisiae deletion strains, growth OD, locus YJL115W, strain asf1, active compounds read low
Out of some 5,500 compounds screened, about 2,000 (36%) were called active. Not shown: some 18% with an inconclusive outcome. Some of the results follow.
Listing of recorded normalized growth by entry.
observed.property: normalized growth

                                    compound  value_observed
 0  Cc1cccc(C)c1NC(=O)C1CCCCN1C (centres undefined)           0.996
 1        COP(=S)(OC)Oc1ccc([N+](=O)[O-])cc1           0.986
 2                      O=NN(CCCl)C(=O)NCCCl           0.923
 3                COc1ccc2oc3ccccc3c(=O)c2c1           0.948
 4     COC(=O)[C@H](c1ccccc1Cl)N1CCc2sccc2C1               1
 5                 c1ccc2c(CC3=NCCN3)cccc2c1           0.976
 6          Cc1oncc1C(=O)Nc1ccc(C(F)(F)F)cc1            1.01
 7  Oc1c(Cl)cc(Cl)c(Cl)c1Cc1c(O)c(Cl)cc(Cl)c1Cl          0.0753
 8                              NCCCCCC(=O)O            1.01
 9                       O=C(O)CCCCCCCC(=O)O            1.01
10                 CN(C)C(=O)Oc1ccc[n+](C)c1           0.993
11      CN(C/C=C/C#CC(C)(C)C)Cc1cccc2ccccc12           0.664
12                               NCCCCC(=O)O            1.02
13  COc1cc(NS(C)(=O)=O)ccc1Cc1c2ccccc2nc2ccccc12           0.341

----------
# test.method.notes: chemical genetic growth profiling, strain panel (AID 1159580);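 also: tested at 20 µM; growth read once vehicle control cultures reached saturation at 30 °C; 1 = growth at the plate median or of vehicle wells; lower values mean less growth of the strain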
# condition.set: S. cerevisiae deletion strains, growth OD, locus YBR136W, strain MEC1, active compounds read low
Screen size: about 5,500 compounds; about 2,000 (36%) were called active. Inconclusive results (about 18%) are left out. Some of the results follow.
observed.property: normalized growth

>>> df
                                    molecule  value_observed
 0  Clc1cccc(Nc2ncc(-c3ccc4c(c3)OCCCO4)s2)c1            0.98
 1      CC1=CC(=O)N(c2ccc(OC(F)(F)F)cc2)C1=O            0.87
 2  Cc1ccc(-c2nc(NS(=O)(=O)c3cccc4nonc34)sc2C)cc1Cl           0.973
 3  O=S(=O)(NCc1cc(Cl)cc(Cl)c1)c1cc(C(F)(F)F)cc(C(F)(F)F)c1           0.998
 4      Clc1ccc(CSc2nccn2-c2cc(Cl)ccc2Cl)cc1           0.951
 5  N#Cc1cccc(CSc2nc3ccc(C(F)(F)F)cc3[nH]2)c1           0.968
 6  Cc1noc(C)c1S(=O)(=O)Nc1csc(C(F)(F)F)c1-c1ccccc1           0.978
 7             Clc1ccccc1-c1csc(-c2ccncc2)n1           0.968
 8  Cc1ccc(S(=O)(=O)Nc2nc(-c3ccc(C)c(Cl)c3)c(C)s2)cc1           0.991
 9           Brc1ccc(-c2csc(-c3cccnc3)n2)cc1           0.913
10  O=C(Nc1cc(C(F)(F)F)cc(C(F)(F)F)c1)C(Cl)(Cl)Cl           0.965
11  N#CC(C#N)=Cc1c(-c2ccccc2Cl)[nH]c2ccccc12            0.97
12  Cc1cccc(N=NC(C(=O)C(F)(F)F)=C(O)c2cccs2)c1           0.993
13  CNC(=O)Sc1c(-c2ccc(Cl)cc2)nn(C(=O)NC)c1SC           0.952
14  O=S(=O)(NCc1ccc(C(F)(F)F)cc1)c1cccc(C(F)(F)F)c1           0.985
15  CC1CCC(C(C)C)C(N(Cc2ccccc2)C(=O)c2ccccc2)C1 (stereo not drawn)            0.98
16  Nc1ccccc1C(=O)Nc1cc(C(F)(F)F)cc(C(F)(F)F)c1           0.946
17                Cn1nccc1-c1cc(Cl)cc(Cl)c1O           0.959
18  O=S(=O)(NCc1ccc(C(F)(F)F)cc1)c1cc(Br)c(Br)s1           0.985
19          CC1=CC(=O)N(c2ccc(F)c(Cl)c2)C1=O           0.971
20  N/C(=N/O)c1ccc(Oc2ccc(C3SCCS3)cc2)c([N+](=O)[O-])c1            1.01
21  O=S(=O)(Nc1csc(C(F)(F)F)c1-c1ccccc1)c1cc(Br)c(Br)s1            0.93
22  C/C(=N/NC(=S)NCC(C)(C)C)c1cc(F)cc(Cl)c1O           0.959

Data provenance is PubChem BioAssay AID1159580.
